- SUBJECT_OF_TEST: UniProt P00734
- ASSAY: Measurement of the thrombin inhibition in buffer
- Assay type: biochemical
- DETAILS: human thrombin 0.06 nmol/l in Tris buffer pH 7.4, 22° C., substrate Boc-Asp(OBzl)-Pro-Arg-AMC; in some cases means of individual determinations
pIC50: −log10 of the molar value.
REPORTED_METRIC: pIC50

A = CCO[C@@H]1CC(CO)N(C(=O)c2cc(OC)c3oc(NCc4cc(Cl)ccn4)nc3c2)C1 (single isomer, unassigned) [Example 3]
B = COc1cc(C(=O)N2CC(C)OCC2C(C)(C)O)cc2nc(NCc3cc(Cl)ccn3)oc12 (single isomer, unassigned) [Example 37]
C = COc1cc(C(=O)N2C[C@H](OC3CC3)C[C@H]2CO)cc2nc(NC(C)c3cc(Cl)ccn3)oc12 (single isomer, unassigned) [Example 14]
QUERY: Rank the listed compounds by pIC50, largest first. Reply with the labels, ordered as the question asks.
RESULT: B, A, C

Source: patent US20160108027A1
